MIC tested on E. faecalis 29212: recorded values

{"molecule": "CCn1c2ccc(-c3cc(C(=O)NCCN)cc(C(=O)NCCN)c3)cc2c2cc(-c3cc(C(=O)NCCN)cc(C(=O)NCCN)c3)ccc21 [Compound 148]", "MIC": "> 50 µg/mL"}
{"molecule": "NCCN(CCN)Cc1cccc(-c2ccc3[nH]c4ccc(-c5cccc(CN(CCN)CCN)c5)cc4c3c2)c1 [Compound 158]", "MIC": "> 50 µg/mL"}
{"molecule": "NCCCn1c2cc(-c3cc(CCN)cc(CCN)c3)ccc2c2ccc(-c3cc(CCN)cc(CCN)c3)cc21 [Compound 161]", "MIC": "> 50 µg/mL"}

Sourced from patent US8895561B2
